# target system: α4β3δ GABAA receptor (Homo sapiens, UniProt P28472+P48169)
# Sequence (P48169 36-554): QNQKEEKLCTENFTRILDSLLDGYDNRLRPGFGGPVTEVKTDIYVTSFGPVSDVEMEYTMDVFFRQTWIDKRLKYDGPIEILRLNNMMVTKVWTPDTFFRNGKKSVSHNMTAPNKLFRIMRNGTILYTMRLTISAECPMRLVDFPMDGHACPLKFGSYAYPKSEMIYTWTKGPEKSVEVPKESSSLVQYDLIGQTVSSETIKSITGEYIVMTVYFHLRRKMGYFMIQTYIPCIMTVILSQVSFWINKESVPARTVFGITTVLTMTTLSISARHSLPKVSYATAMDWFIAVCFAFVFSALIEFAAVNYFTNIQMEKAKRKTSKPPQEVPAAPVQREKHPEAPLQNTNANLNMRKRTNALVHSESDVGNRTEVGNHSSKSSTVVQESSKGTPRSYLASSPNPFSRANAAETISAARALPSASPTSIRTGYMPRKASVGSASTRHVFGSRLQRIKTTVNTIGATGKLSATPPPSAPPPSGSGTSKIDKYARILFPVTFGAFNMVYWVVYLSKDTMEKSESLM
# Sequence (P28472 26-473): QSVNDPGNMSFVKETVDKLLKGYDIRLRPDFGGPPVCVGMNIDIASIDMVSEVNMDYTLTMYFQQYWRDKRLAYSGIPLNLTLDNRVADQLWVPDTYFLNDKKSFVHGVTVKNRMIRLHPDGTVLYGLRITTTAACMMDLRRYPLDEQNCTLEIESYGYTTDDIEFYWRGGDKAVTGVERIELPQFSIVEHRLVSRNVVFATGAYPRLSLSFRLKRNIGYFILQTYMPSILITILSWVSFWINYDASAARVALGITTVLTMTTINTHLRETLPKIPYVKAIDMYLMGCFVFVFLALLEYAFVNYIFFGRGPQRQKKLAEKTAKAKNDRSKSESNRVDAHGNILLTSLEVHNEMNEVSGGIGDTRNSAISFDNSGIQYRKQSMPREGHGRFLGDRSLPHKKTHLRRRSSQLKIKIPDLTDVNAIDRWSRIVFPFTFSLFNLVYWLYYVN
# Sequence (O14764 17-452 partner limits assumed): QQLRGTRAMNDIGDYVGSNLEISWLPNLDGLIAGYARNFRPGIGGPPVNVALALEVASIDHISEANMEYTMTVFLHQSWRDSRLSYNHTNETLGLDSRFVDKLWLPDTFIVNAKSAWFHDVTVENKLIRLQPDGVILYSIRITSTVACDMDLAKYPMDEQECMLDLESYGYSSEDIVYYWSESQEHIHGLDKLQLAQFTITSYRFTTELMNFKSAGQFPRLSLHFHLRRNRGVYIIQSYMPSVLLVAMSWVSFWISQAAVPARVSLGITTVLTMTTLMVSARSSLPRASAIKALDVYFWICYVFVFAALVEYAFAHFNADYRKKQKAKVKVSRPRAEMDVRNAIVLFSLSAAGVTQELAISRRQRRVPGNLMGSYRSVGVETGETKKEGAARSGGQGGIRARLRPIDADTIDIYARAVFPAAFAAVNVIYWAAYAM
# test description: Synergy with diazepam, α4β3δ in CHO cells
# Type: cell-based
pEC50: −log10 of the molar value.
reported endpoint: pEC50

[[record]]
record_smiles = "C[C@@]1(O)CC[C@H]2[C@H](CC[C@@H]3[C@@H]2CC[C@]2(C)[C@@H](C(=O)Cn4cc(C#N)cn4)CC[C@@H]32)C1"
value_measured = 6.87


* * *

# target system: α1β2γ2 GABAA receptor (Homo sapiens, UniProt P14867+P18507+P47870)
# Sequence (P14867 28-456): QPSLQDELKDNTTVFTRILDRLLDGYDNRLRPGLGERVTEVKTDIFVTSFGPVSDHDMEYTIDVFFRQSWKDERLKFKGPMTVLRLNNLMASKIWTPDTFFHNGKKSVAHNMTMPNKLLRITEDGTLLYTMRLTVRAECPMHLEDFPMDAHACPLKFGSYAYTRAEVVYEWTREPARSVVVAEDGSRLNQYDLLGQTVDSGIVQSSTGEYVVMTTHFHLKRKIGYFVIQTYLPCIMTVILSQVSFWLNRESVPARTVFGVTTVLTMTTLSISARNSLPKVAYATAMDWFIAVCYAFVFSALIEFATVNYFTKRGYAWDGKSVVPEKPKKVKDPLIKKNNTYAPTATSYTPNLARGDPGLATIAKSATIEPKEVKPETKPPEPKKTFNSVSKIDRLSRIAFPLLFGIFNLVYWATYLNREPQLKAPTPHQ
# Sequence (P47870 25-512 limits assumed): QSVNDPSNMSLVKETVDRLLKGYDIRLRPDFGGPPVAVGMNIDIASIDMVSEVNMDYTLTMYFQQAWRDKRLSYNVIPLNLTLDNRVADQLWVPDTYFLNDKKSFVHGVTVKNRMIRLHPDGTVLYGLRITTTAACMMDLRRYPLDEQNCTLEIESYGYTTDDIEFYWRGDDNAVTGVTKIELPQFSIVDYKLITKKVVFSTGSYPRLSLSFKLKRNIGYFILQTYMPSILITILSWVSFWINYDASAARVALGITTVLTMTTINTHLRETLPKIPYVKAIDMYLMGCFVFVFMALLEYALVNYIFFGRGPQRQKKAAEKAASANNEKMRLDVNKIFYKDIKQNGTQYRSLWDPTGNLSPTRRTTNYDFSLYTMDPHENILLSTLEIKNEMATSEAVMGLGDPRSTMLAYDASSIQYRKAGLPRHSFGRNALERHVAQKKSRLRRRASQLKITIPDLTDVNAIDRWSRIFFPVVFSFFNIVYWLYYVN
# Sequence (P18507 40-475): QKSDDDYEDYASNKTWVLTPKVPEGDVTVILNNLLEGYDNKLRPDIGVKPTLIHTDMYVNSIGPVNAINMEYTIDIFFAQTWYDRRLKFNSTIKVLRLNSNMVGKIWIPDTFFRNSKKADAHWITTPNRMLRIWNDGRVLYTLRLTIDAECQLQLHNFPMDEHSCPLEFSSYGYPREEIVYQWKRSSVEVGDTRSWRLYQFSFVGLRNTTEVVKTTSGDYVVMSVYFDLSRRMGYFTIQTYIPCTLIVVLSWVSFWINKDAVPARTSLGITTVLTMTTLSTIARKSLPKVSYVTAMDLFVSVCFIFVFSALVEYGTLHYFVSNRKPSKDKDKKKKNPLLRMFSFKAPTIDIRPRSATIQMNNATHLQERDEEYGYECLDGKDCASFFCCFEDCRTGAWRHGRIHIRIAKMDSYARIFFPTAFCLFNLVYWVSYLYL
# test description: P4S concentration-response with and without 200 nM zuranolone, Ltk cells
# Assay type: cell-based
# details: EC50 of P4S, with 200 nM zuranolone, α1β2γ2, Ltk cells
pEC50: −log10 of the molar value.
reported endpoint: pEC50

[[record]]
record_smiles = "O=S(=O)(O)C1CCNCC1"
target_system = "α1β2γ2 GABAA receptor (Homo sapiens, UniProt P14867+P18507+P47870)"
value_measured = 4.60

